test: Partition coefficient (logP); settings: octanol/water
Entries annotated with measured logP
valueType: logP

[
  {
    "givenSmiles": "O=[N+]([O-])C1=Cc2c3c1cccc3cc1ccc3ccccc3c21",
    "valueType": "logP",
    "experimentalValue": 5.07
  },
  {
    "givenSmiles": "O=[N+]([O-])c1ccc2oc3ccccc3c2c1",
    "valueType": "logP",
    "experimentalValue": 3.83
  },
  {
    "givenSmiles": "O=[N+]([O-])c1cc2c3c(ccc4cc([N+](=O)[O-])cc(c43)CC2)c1",
    "valueType": "logP",
    "experimentalValue": 4.73
  },
  {
    "givenSmiles": "O=[N+]([O-])c1ccc2c3c(cccc13)-c1cc3ccccc3cc1-2",
    "valueType": "logP",
    "experimentalValue": 5.87
  },
  {
    "givenSmiles": "O=[N+]([O-])c1ccc2c(ccc3ccccc32)c1",
    "valueType": "logP",
    "experimentalValue": 4.23
  },
  {
    "givenSmiles": "Nc1c(Br)cc([N+](=O)[O-])cc1[N+](=O)[O-]",
    "valueType": "logP",
    "experimentalValue": 2.78
  },
  {
    "givenSmiles": "O=[N+]([O-])c1c2ccccc2cc2c1ccc1ccccc12",
    "valueType": "logP",
    "experimentalValue": 5.41
  },
  {
    "givenSmiles": "O=[N+]([O-])c1ccc2ncccc2c1",
    "valueType": "logP",
    "experimentalValue": 1.84
  },
  {
    "givenSmiles": "O=Cc1ccc([N+](=O)[O-])o1",
    "valueType": "logP",
    "experimentalValue": 1.01
  },
  {
    "givenSmiles": "COc1cc([N+](=O)[O-])c2ncccc2c1",
    "valueType": "logP",
    "experimentalValue": 1.87
  }
]

====

experiment: Partition coefficient (logP); details: octanol/water
Checkbox rule: logP lower than 3 = YES; logP not lower than 3 = NO.

[
  {
    "compound": "O=[N+]([O-])c1cccc(Cl)c1",
    "class": "YES"
  },
  {
    "compound": "O=[N+]([O-])c1ccc2cccc3c2c1C=C3",
    "class": "NO"
  },
  {
    "compound": "O=[N+]([O-])C1Cc2cccc3cccc1c23 (stereo not given)",
    "class": "YES"
  },
  {
    "compound": "O=[N+]([O-])c1ccc(F)cc1[N+](=O)[O-]",
    "class": "YES"
  },
  {
    "compound": "Cc1c([N+](=O)[O-])ccc2ccccc12",
    "class": "NO"
  },
  {
    "compound": "CC(=O)Oc1ccc2c(c1)Cc1cc([N+](=O)[O-])ccc1-2",
    "class": "NO"
  },
  {
    "compound": "O=[N+]([O-])c1cccc2c3ccccc3c3ccccc3c12",
    "class": "NO"
  },
  {
    "compound": "Cc1cc2ccccc2cc1[N+](=O)[O-]",
    "class": "NO"
  },
  {
    "compound": "Cn1ncc2cccc([N+](=O)[O-])c21",
    "class": "YES"
  },
  {
    "compound": "O=[N+]([O-])c1cccc2cccnc12",
    "class": "YES"
  },
  {
    "compound": "O=[N+]([O-])C1=Cc2cccc3c2c1cc1cc2ccccc2cc13",
    "class": "NO"
  },
  {
    "compound": "O=[N+]([O-])c1ccc2c3ccccc3c3c([N+](=O)[O-])ccc4ccc1c2c43",
    "class": "NO"
  },
  {
    "compound": "O=[N+]([O-])c1cc2c3c(ccc([N+](=O)[O-])c3c1)-c1ccccc1-2",
    "class": "NO"
  },
  {
    "compound": "O=[N+]([O-])c1c2cccc(O)c2cc2c1ccc1ccccc12",
    "class": "NO"
  },
  {
    "compound": "O=[N+]([O-])c1ccc2c(c1)Cc1cc([N+](=O)[O-])ccc1-2",
    "class": "NO"
  }
]

// data source = ChEMBL document CHEMBL1125820
